# System: OVCAR-4 ovarian
# Assay: NCI-60 one-dose screen, 48 h (100 = growth as untreated, 0 = no growth, -100 = all killed)
# Experimental setup: 10 µM unless noted
Compounds without any hit were thinned out: in the full panel of roughly 83,000, 20% have a hit.
Recorded endpoint: growth (%)
Your answer is read as %, so omit the unit and give the number.

Check out these entries, answers already filled in.
COc1cccc(CC(C)=C(c2ccc(OCCN3CCCCC3)cc2)c2ccc(OCCN3CCCCC3)cc2)c1 = -49
Cc1ccc(S(=O)(=O)n2cc(C(=O)C(=O)Nc3ccncc3)c3ccccc32)cc1 = 56
C=C(C)[C@@H]1CC[C@]2(C(=O)N3CCNCC3)CC[C@]3(C)[C@H](CC[C@@H]4[C@@]5(C)C/C(=C/c6ccncc6)C(=O)C(C)(C)[C@@H]5CC[C@]43C)[C@@H]12 = 98.9
COc1ccc(/C=C2\Oc3cc(OCCCN4CCCC4)ccc3C2=O)c(OC)c1 = 90.3
CCCCCCCCN(CCCCCCCC)CCCCCCNc1cc(OC)cc2cccnc12 = 82.7

Kindly note: OVCAR-4 ovarian, CCN1CCN(CC(=O)N2c3cccc4cccc(c34)N(C(=O)CN3CCN(CC)CC3)C2c2cn(-c3ccccc3)nc2-c2cccc([N+](=O)[O-])c2)CC1 , growth value reported: -76.4

Kindly note: OVCAR-4 ovarian, N#Cc1ccc(N2Cc3ccccc3OC3=C2C(=O)c2c(O)ccc(O)c2C3=O)cc1 , growth value reported: -43.4

Kindly note: OVCAR-4 ovarian, Cc1ccc(NS(=O)(=O)c2cc(C)ccc2C)cc1 , growth value reported: 92.6

###

# Test system: NCI/ADR-RES ovarian
# Assay: NCI-60 one-dose screen, 48 h (100 = growth as untreated, 0 = no growth, -100 = all killed)
# Experimental setup: 10 µM unless noted
The panel holds about 83,000 compounds, 20% with a hit somewhere; the sample as a whole holds those more often.
Reported growth is given for each of the following compounds.
Your answer is read as %, so omit the unit and give the number.

Check out these entries, answers already filled in.
COc1ccc(-c2c(N)n[nH]c2-c2cc3c(c(OC)c2OC)OCO3)cc1 = 96.8
C=CCn1cc(-c2nc3ccccc3s2)c2cc(-c3ccc4c5c(cccc35)C(=O)N(CCN3CCNCC3)C4=O)ccc21 = 83.1
CN(C[C@H]1Cc2c(cccc2N2CCN(c3ncccn3)CC2)CN1)[C@H]1CCCc2cccnc21 = 9.46
C=C1CCC2C3(C)COC(c4ccc(N(C)C)cc4)OC3CCC2(C)C1C/C=C1/C(=O)OCC1O (stereo not given) = 65.1
O=C(NNC(=O)N1c2ccccc2C=Cc2ccccc21)c1ccccc1 = 99.8
COc1ccc(-n2c(=S)sc3c(Cl)nc(C)nc32)c(OC)c1 = 78.5

Form: compound = O=C1/C(=C/c2ccccc2)CN(C(=O)CCN2CCC(=NO)CC2)C/C1=C\c1ccccc1 ; growth = 14.6

Form: compound = CC(C)CSc1nc(NN)c(C#N)c(-c2ccc(F)cc2)n1 ; growth = 50.8

Form: compound = CC(=O)Oc1csc(N(C(C)=O)c2cc(C(=O)O)cc(C(=O)O)c2)n1 ; growth = 99.2

Form: compound = NC(=O)c1c(NC(=S)Nc2ccc(OC(F)(F)F)cc2)sc2c1CCC1(C2)OCCO1 ; growth = 98.9

###

# Tested on: HOP-62 NSCLC
# Assay: NCI-60 one-dose screen, 48 h (100 = growth as untreated, 0 = no growth, -100 = all killed)
# Experimental setup: 10 µM unless noted
The panel holds about 83,000 compounds, 20% with a hit somewhere; the sample as a whole holds those more often.
Reported growth is given for each of the following compounds.
Your answer is read as %, so omit the unit and give the number.

Check out these entries, answers already filled in.
O=[N+]([O-])c1cccc(-c2nc3sccn3c2-c2ccnc(NCCCNS(=O)(=O)c3ccc(C(F)(F)F)cc3)n2)c1 = 50
O=C(Nc1ccncc1)C(=O)c1cn(S(=O)(=O)c2ccccc2F)c2ccccc12 = 38.4
C=C(C)[C@@H]1C[C@@H]2Cc3cc(F)ccc3N1O2 = 94.4
COc1ccc(-c2ccc(-c3ccc(-c4ccc(C(=N)N)cc4)s3)s2)cc1OC = 86
CN1CCN(CCCOc2ccc3nc(Nc4ccc(Cl)c(C(F)(F)F)c4)ccc3c2)CC1 = 57.8
C=C[C@@H]1C[C@@H]2Cc3cc(Cl)ccc3N1O2 = 94.8
O=c1[nH]c(-c2ccccc2)nc(CN2CCCCC2)c1O = 112
COc1cc(-c2nn(-c3cccc(NC(=O)c4ccccc4)c3)cc2-c2ccncc2)ccc1Cl = 27.1

Kindly note: HOP-62 NSCLC, COc1cc(C(=O)/C=C/c2c(C)n([O-])c3ccc(C(F)(F)F)cc3[n+]2=O)cc(OC)c1OC , growth value reported: 118

Kindly note: HOP-62 NSCLC, CCOC(=O)CC(=O)OC , growth value reported: 102

###

# Tested on: HOP-92 NSCLC
# Assay: NCI-60 one-dose screen, 48 h (100 = growth as untreated, 0 = no growth, -100 = all killed)
# Experimental setup: 10 µM unless noted
The panel holds about 83,000 compounds, 20% with a hit somewhere; the sample as a whole holds those more often.
Label 1 (yes) when growth is at or above 60%; otherwise label 0 (no).

These recorded examples may help you get a feel for the data.
CC[N+](CC)=c1cc2oc3cc(N(C)C)ccc3nc-2cc1C = 1 (yes)
C/C=C/C1=CN2C(=O)c3cc(OC4OC(C)C(NC)C(C)(O)C4O)c(C)cc3N=C[C@@H]2C1 (stereo not given in full) = 0 (no)
COc1cc2c(c(OC)c1OC)-c1ccc(N)c(=O)cc1[C@@H](NC(C)=O)CC2 = 0 (no)
C=C[C@@H]1C[C@H](O)Cc2cc(F)ccc2N1 = 0 (no)
O=C1NN(C(=O)c2ccc(Cl)cc2)C(c2ccccc2)=N/C1=C\c1cn(-c2ccccc2)nc1-c1ccccc1 = 1 (yes)
CCCCCCCCN(CCCCCCCC)CCCCCCNc1cc(OC)cc2cccnc12 = 1 (yes)
O=C(Nc1ccc(NCCN2CCOCC2)nc1)c1ccc([N+](=O)[O-])cc1 = 1 (yes)
COc1ccc(-c2ccc(C)n2-c2ccc(-c3nc4ccccc4s3)cc2)cc1 = 1 (yes)
O=[N+]([O-])c1ccc(Sc2ncccn2)c([N+](=O)[O-])c1 = 0 (no)

Now for another entry.
In: Threshold query (growth >= 60%) on O=C(NCCNc1nccc(-n2ccc3cccnc32)n1)c1ccc(C(F)(F)F)cc1
Out: 1 (yes)

###

# Test system: CAKI-1 renal
# Assay: NCI-60 one-dose screen, 48 h (100 = growth as untreated, 0 = no growth, -100 = all killed)
# Experimental setup: 10 µM unless noted
About 83,000 compounds went through this panel and 20% of them were active in at least one assay; those are over-represented in the sample as a whole.
Kindly apply the following: class 1 if growth is less than 70%, class 0 in every other case.

These recorded examples may help you get a feel for the data.
CCOC(=O)C1=C(C)NC(C)=C(C(=O)OCC)C1(C)C = class 0
COc1cc2c(=O)n(C3CCCCCC3)c3c4cc[nH]c4ncc3c2cc1OC = class 0
O=S(=O)(NCCNc1nccc(-c2c(-c3ccc(O)cc3)nc3sccn23)n1)c1cccc2ccccc12 = class 0
COc1ccc(-c2cn(-c3cccc(C(=O)/C=C/c4cc(OC)c(OC)c(OC)c4)c3)c(=O)[nH]2)cc1OC = class 0
COc1ccc(C2C(C#N)=C(N)Oc3c2ccc2ccccc32)cc1 (centres undefined) = class 1
O=C(Nc1cccc(-n2cc(-c3ccncc3)c(-c3ccc(Cl)c(O)c3)n2)c1)Nc1cc(C(F)(F)F)cc(C(F)(F)F)c1 = class 1

In: Say whether its growth is strictly beneath 70%. Entry: CC(=O)Nc1ccc(S(=O)(=O)n2ccc(-c3ccc4c(c3)CCC(C)(C)O4)n2)cc1
Out: class 1

In: Say whether its growth is strictly beneath 70%. Entry: Cc1ccc(S(=O)(=O)Nc2c(Br)cc(Br)cc2C(N)=O)cc1
Out: class 0

In: Say whether its growth is strictly beneath 70%. Entry: O=c1c2sc3ncccc3c2nnn1-c1ccccc1
Out: class 0

###

# System: MDA-MB-231 breast
# Assay: NCI-60 one-dose screen, 48 h
# Experimental setup: 10 µM unless noted
Compounds without any hit were thinned out: in the full panel of roughly 83,000, 20% have a hit. Active and inactive are the calls of the source. How the source made its calls: active means growth percent below 10; inactive means the rest.
Choose one outcome from this list and give only that: t (active), f (inactive)

These recorded examples may help you get a feel for the data.
c1cc2[nH]ncc2cc1-c1nc2ccc3[nH]ncc3c2c2c1CCC2 = f
Brc1cccc(-c2cc(-c3ccc4c(c3)OCCCO4)[nH]n2)c1 = f
CN(C)CCN1C(=O)c2ccc3c4c(ccc(c24)C1=O)C(=O)N(CCN=C=S)C3=O = t
CC(=O)Nc1scc[n+]1Cc1ccccc1 = f
COc1ccc(-c2cnnn2-c2nonc2-n2cccc2)cc1OC = f

Now for another entry.
In: Record lookup: outcome of this test for COC(=O)c1cc2cc(-c3ccc(OC)cc3)cnc2[nH]1 ?
Out: f
